Cited source for all entries: PubChem BioAssay (NCI)

Tested on: SF-539 CNS
Assay: NCI tumour cell line growth inhibition, 48 h; in the data active = GI50 below about 0.43 µM; inactive = the rest
Select the matching outcome among true (1) (active), false (0) (inactive)

Illustrative cases are given below, each with its answer.
>>> assigned_class("N#CCCN1C/C(=C/c2ccc(Cl)cc2)C(=O)/C(=C/c2ccc(Cl)cc2)C1")
"false (0)"
>>> assigned_class("CCC1(O)C(=O)OCc2c1cc1n(c2=O)Cc2cc3c(NC(=O)CN)cccc3nc2-1 (centres undefined)")
"true (1)"
>>> assigned_class("C#CCNC(=O)[C@H](CC)[C@H]1CC[C@H](C)[C@H]([C@@H](C)[C@H](O)[C@H](C)C(=O)[C@H](CC)C2O[C@]3(C=CC(=O)[C@]4(CC[C@@](C)([C@H]5CC[C@](O)(CC)[C@H](C)O5)O4)O3)[C@H](C)C[C@@H]2C)O1 (some centres undefined)")
"false (0)"

Next item in the queue.
Call for entry COC(=O)c1cncc(/C=C/c2c(C)cc(O)cc2C)c1 :
false (0)
